system: MDA-MB-468 spheroids with HUVEC/MSC, viability; assay: Anticancer human tumor MDA-MB-468 cell line growth inhibition [PI3K]; conditions: curve of first compound; second compound 0.0316 µM;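 note: spheroids exposed to agents for seven days before readout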
parameter: IC50

Worked examples follow.
>>> measured_result("Cn1cnc2c(F)c(Nc3ccc(Br)cc3Cl)c(C(=O)NOCCO)cc21 + COc1c(OCCCN2CCOCC2)ccc2c3n(c(=NC(=O)c4cnc(N)nc4)nc12)CCN3")
"1.08 µM"
>>> measured_result("CCN1CCN(Cc2ccc(Nc3ncc(F)c(-c4cc(F)c5nc(C)n(C(C)C)c5c4)n3)nc2)CC1 + CC(Nc1ncnc2nc[nH]c12)c1cc2cccc(Cl)c2c(=O)n1-c1ccccc1")
"> 1 µM"
>>> measured_result("C=CC(=O)N1CCN(c2nc(=O)n(-c3c(C)ccnc3C(C)C)c3nc(-c4c(O)cccc4F)c(F)cc23)C(C)C1 (stereo unspecified) + COc1c(OCCCN2CCOCC2)ccc2c3n(c(=NC(=O)c4cnc(N)nc4)nc12)CCN3")
"> 10 µM"
>>> measured_result("Cn1nccc1Nc1nccc(-c2ccn(C(CO)c3ccc(Cl)c(F)c3)c(=O)c2)n1 (stereo unspecified) + CC(Nc1ccc2c(c1)OCCn1cc(N3C(=O)OCC3C(F)F)nc1-2)C(N)=O")
"> 10 µM"

Consider the molecule C#Cc1c(F)ccc2cc(O)cc(-c3ncc4c(N5CC6CCC(C5)N6)nc(OCC56CCCN5CC(F)C6)nc4c3F)c12 (stereo unspecified) + CC(Nc1ncnc2nc[nH]c12)c1cc2cccc(Cl)c2c(=O)n1-c1ccccc1 and give its measured IC50.
> 10 µM

Ok, now CCCS(=O)(=O)Nc1ccc(F)c(C(=O)c2c[nH]c3ncc(-c4ccc(Cl)cc4)cc23)c1F + CC(Nc1ncnc2nc[nH]c12)c1cc2cccc(Cl)c2c(=O)n1-c1ccccc1
4.45 µM

Now try Cn1cnc2c(F)c(Nc3ccc(Br)cc3Cl)c(C(=O)NOCCO)cc21 + Cc1nc(NC(=O)N2CCCC2C(N)=O)sc1-c1ccnc(C(C)(C)C(F)(F)F)c1 .
> 3 µM

Entry to check: CC(C)n1nc(-c2ccc3oc(N)nc3c2)c2c(N)ncnc21 + CC(Nc1ncnc2nc[nH]c12)c1cc2cccc(Cl)c2c(=O)n1-c1ccccc1
0.0419 µM

And for Cn1ncnc1[C@H]1c2n[nH]c(=O)c3cc(F)cc(c23)N[C@@H]1c1ccc(F)cc1 + CC(Nc1ncnc2nc[nH]c12)c1cc2cccc(Cl)c2c(=O)n1-c1ccccc1 ?
> 0.1 µM

Now this one: CC(=O)c1c(C)c2cnc(Nc3ccc(N4CCNCC4)cn3)nc2n(C2CCCC2)c1=O + COc1c(OCCCN2CCOCC2)ccc2c3n(c(=NC(=O)c4cnc(N)nc4)nc12)CCN3
> 0.1 µM

Can you handle C[C@@H](NC(=O)c1ncnc(N)c1Cl)c1ncc(C(=O)Nc2cc(C(F)(F)F)c(Cl)cn2)s1 + COc1c(OCCCN2CCOCC2)ccc2c3n(c(=NC(=O)c4cnc(N)nc4)nc12)CCN3 next?
> 10 µM

Then what about the molecule CCN1CCN(Cc2ccc(Nc3ncc(F)c(-c4cc(F)c5nc(C)n(C(C)C)c5c4)n3)nc2)CC1 + COc1c(OCCCN2CCOCC2)ccc2c3n(c(=NC(=O)c4cnc(N)nc4)nc12)CCN3 ?
> 1 µM

Note, next up: CC1(C)CCC(CN2CCN(c3ccc(C(=O)NS(=O)(=O)c4ccc(NCC5CCOCC5)c([N+](=O)[O-])c4)c(Oc4cnc5[nH]ccc5c4)c3)CC2)=C(c2ccc(Cl)cc2)C1 + CC(Nc1ccc2c(c1)OCCn1cc(N3C(=O)OCC3C(F)F)nc1-2)C(N)=O
4.3 µM

----------
tested on: MDA-MB-468 spheroids with HUVEC/MSC, viability; experiment: Anticancer human tumor MDA-MB-468 cell line growth inhibition [PI3K]; conditions: second compound 0.316 µM; first compound 3.16 µM; active means viability on the fitted dose curve at most 10% of control; inactive means the rest;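 note: spheroids exposed to agents for seven days before readout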
Parameter call: string, one of 1 (yes) (active), 0 (no) (inactive)

Fill in: this test's call for CC(Cn1ccc(-c2ccc(C#N)c(Cl)c2)n1)NC(=O)c1cc(C(C)O)[nH]n1 (stereo not given) + COc1c(OCCCN2CCOCC2)ccc2c3n(c(=NC(=O)c4cnc(N)nc4)nc12)CCN3 is ___
0 (no)

----------
system: MDA-MB-468 spheroids with HUVEC/MSC, viability; experiment: Anticancer human tumor MDA-MB-468 cell line growth inhibition [PI3K]; conditions: second compound 3.16 µM; first compound 0.316 µM; active = viability on the fitted dose curve at most 10% of control; inactive = the rest;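 note: spheroids exposed to agents for seven days before readout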
Field 'call' accepts True for active, False for inactive

Solved cases below.
>>> qualitative_label("CCCS(=O)(=O)Nc1ccc(F)c(C(=O)c2c[nH]c3ncc(-c4ccc(Cl)cc4)cc23)c1F + CC(Nc1ncnc2nc[nH]c12)c1cc2cccc(Cl)c2c(=O)n1-c1ccccc1")
"False"
>>> qualitative_label("CCCS(=O)(=O)Nc1ccc(F)c(C(=O)c2c[nH]c3ncc(-c4ccc(Cl)cc4)cc23)c1F + Cc1nc(NC(=O)N2CCCC2C(N)=O)sc1-c1ccnc(C(C)(C)C(F)(F)F)c1")
"False"
>>> qualitative_label("CC1(C)CCC(CN2CCN(c3ccc(C(=O)NS(=O)(=O)c4ccc(NCC5CCOCC5)c([N+](=O)[O-])c4)c(Oc4cnc5[nH]ccc5c4)c3)CC2)=C(c2ccc(Cl)cc2)C1 + CC(Nc1ncnc2nc[nH]c12)c1cc2cccc(Cl)c2c(=O)n1-c1ccccc1")
"False"

Please let me know the test result on file for CNC(=O)c1ccc(N2C(=S)N(c3ccc(C#N)c(C(F)(F)F)c3)C(=O)C2(C)C)cc1F + Cc1nc(NC(=O)N2CCCC2C(N)=O)sc1-c1ccnc(C(C)(C)C(F)(F)F)c1 .
False

And the next one, C#Cc1c(F)ccc2cc(O)cc(-c3ncc4c(N5CC6CCC(C5)N6)nc(OCC56CCCN5CC(F)C6)nc4c3F)c12 (stereo unspecified) + CC(Nc1ncnc2nc[nH]c12)c1cc2cccc(Cl)c2c(=O)n1-c1ccccc1 ?
False

Repeat with Cn1nccc1Nc1nccc(-c2ccn(C(CO)c3ccc(Cl)c(F)c3)c(=O)c2)n1 (stereo unspecified) + CC(Nc1ncnc2nc[nH]c12)c1cc2cccc(Cl)c2c(=O)n1-c1ccccc1
False

Note, next up: CC(C)NCC(C(=O)N1CCN(c2ncnc3c2C(C)CC3O)CC1)c1ccc(Cl)cc1 (stereo unspecified) + CC(Nc1ncnc2nc[nH]c12)c1cc2cccc(Cl)c2c(=O)n1-c1ccccc1
False

----------
test system: MDA-MB-468 spheroids with HUVEC/MSC, viability; assay: Anticancer human tumor MDA-MB-468 cell line growth inhibition [PI3K]; conditions: curve of first compound; second compound 0.0316 µM;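 note: spheroids exposed to agents for seven days before readout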
pIC50: −log10 of the molar value.
parameter: pIC50

Worked set:
>>> measured_result("CC(C)n1nc(-c2ccc3oc(N)nc3c2)c2c(N)ncnc21 + Cc1nc(NC(=O)N2CCCC2C(N)=O)sc1-c1ccnc(C(C)(C)C(F)(F)F)c1")
7.30
>>> measured_result("CCN1CCN(Cc2ccc(Nc3ncc(F)c(-c4cc(F)c5nc(C)n(C(C)C)c5c4)n3)nc2)CC1 + CC(Nc1ccc2c(c1)OCCn1cc(N3C(=O)OCC3C(F)F)nc1-2)C(N)=O")
"< 6.00"
>>> measured_result("CC(C)NCC(C(=O)N1CCN(c2ncnc3c2C(C)CC3O)CC1)c1ccc(Cl)cc1 (stereo not drawn) + Cc1nc(NC(=O)N2CCCC2C(N)=O)sc1-c1ccnc(C(C)(C)C(F)(F)F)c1")
6.01

Field: pIC50 (MDA-MB-468 spheroids with HUVEC/MSC, viability). Entry: CCCS(=O)(=O)Nc1ccc(F)c(C(=O)c2c[nH]c3ncc(-c4ccc(Cl)cc4)cc23)c1F + CC(Nc1ccc2c(c1)OCCn1cc(N3C(=O)OCC3C(F)F)nc1-2)C(N)=O
5.29

// next record CC(=O)c1c(C)c2cnc(Nc3ccc(N4CCNCC4)cn3)nc2n(C2CCCC2)c1=O + CC(Nc1ncnc2nc[nH]c12)c1cc2cccc(Cl)c2c(=O)n1-c1ccccc1
< 7.00

Ok, now CC(=O)c1c(C)c2cnc(Nc3ccc(N4CCNCC4)cn3)nc2n(C2CCCC2)c1=O + CC(Nc1ccc2c(c1)OCCn1cc(N3C(=O)OCC3C(F)F)nc1-2)C(N)=O
< 7.00

Next: CC1(C)CCC(Nc2ncc(C(F)(F)F)c(-c3c[nH]c4c(P(C)(C)=O)c(C#N)ccc34)n2)CN1 (stereo not drawn) + Cc1nc(NC(=O)N2CCCC2C(N)=O)sc1-c1ccnc(C(C)(C)C(F)(F)F)c1
> 7.50

Here is the next compound: CC(=O)c1c(C)c2cnc(Nc3ccc(N4CCNCC4)cn3)nc2n(C2CCCC2)c1=O + Cc1nc(NC(=O)N2CCCC2C(N)=O)sc1-c1ccnc(C(C)(C)C(F)(F)F)c1
< 7.00

Check Cn1ncc(Cl)c1-c1cc(C(=O)NC(CN)Cc2cccc(F)c2)sc1Cl (stereo not drawn) + CC(Nc1ncnc2nc[nH]c12)c1cc2cccc(Cl)c2c(=O)n1-c1ccccc1 too.
6.53

Same again, this time with CC1(C)CCC(Nc2ncc(C(F)(F)F)c(-c3c[nH]c4c(P(C)(C)=O)c(C#N)ccc34)n2)CN1 (stereo not drawn) + CC(Nc1ccc2c(c1)OCCn1cc(N3C(=O)OCC3C(F)F)nc1-2)C(N)=O
> 7.50

Record: Cn1ncnc1[C@H]1c2n[nH]c(=O)c3cc(F)cc(c23)N[C@@H]1c1ccc(F)cc1 + Cc1nc(NC(=O)N2CCCC2C(N)=O)sc1-c1ccnc(C(C)(C)C(F)(F)F)c1
< 7.00

How about this compound: Cn1ncc(Cl)c1-c1cc(C(=O)NC(CN)Cc2cccc(F)c2)sc1Cl (stereo not drawn) + CC(Nc1ccc2c(c1)OCCn1cc(N3C(=O)OCC3C(F)F)nc1-2)C(N)=O
6.55

What do you have for CC(Cn1ccc(-c2ccc(C#N)c(Cl)c2)n1)NC(=O)c1cc(C(C)O)[nH]n1 (stereo not drawn) + COc1c(OCCCN2CCOCC2)ccc2c3n(c(=NC(=O)c4cnc(N)nc4)nc12)CCN3 ?
< 5.00
